Listing of recorded thermal shift delta Tm by entry.
test system: LOC_OS01G13800-cb001; experiment: thermal shift delta Tm vs DMSO control; higher = stronger stabilization (binding); conditions: 12.5 µM; protein concentration 2 µM;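 also: purified Escherichia coli-expressed rice kinase domain construct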
Give just the number in °C; leave the unit off.

compound	unit.abbreviation	thermal shift delta Tm
C[C@@H](Oc1ccc2[nH]nc(/C=C/c3cnn(CCO)c3)c2c1)c1c(Cl)cncc1Cl	°C	-0.36
CC(C)(CCCCCC(O)CCCCCC(C)(C)C(=O)O)C(=O)O	°C	0.41
CN1C(=O)[C@@H](NC(=O)c2n[nH]c(Cc3ccccc3)n2)COc2ccccc21	°C	0.83
COc1ccc(CCNCc2ccc(OCc3ccc(Cl)nc3)c(OC)c2)cc1OC	°C	0.46
CCCCNc1ncc(-c2ccc(CN3CCOCC3)cn2)c(NC2CCC(O)CC2)n1 (centres undefined)	°C	-0.02

Q: Recall and state the measured thermal shift delta Tm for "C[C@@H]1CN(CC(=O)Nc2ccc3c(c2)Cc2cccc(-c4cc(=O)cc(N5CCOCC5)o4)c2S3)C[C@H](C)O1" .
Ans: 0.28

Q: Recall and state the measured thermal shift delta Tm for "Cc1cc(N2CCOCC2)cc2[nH]c(-c3c(NC[C@@H](O)c4cccc(Cl)c4)cc[nH]c3=O)nc12" .
Ans: 0.09

Q: Recall and state the measured thermal shift delta Tm for "O=c1c(O)c(-c2ccc(O)c(O)c2)oc2cc(O)cc(O)c12" .
Ans: 1.97

Q: Recall and state the measured thermal shift delta Tm for COc1cc2ncnc(Nc3ccc(F)c(Cl)c3)c2cc1OCCCN1CCOCC1 [Gefitinib (ZD1839)] .
Ans: 0.4
